- Tested system: HLA-DR DRB1*1101 (DR11) (Homo sapiens, UniProt P01903+P01911, A100R/A169T/A87E/I96F/K41T/L162R/M171V/P40S/Q125H/Q178H/Q39Y/Q99D/R42S/S66Y/T262R/V115G/W38E)
- Sequence (P01903 26-254 limits assumed, other chains not shown): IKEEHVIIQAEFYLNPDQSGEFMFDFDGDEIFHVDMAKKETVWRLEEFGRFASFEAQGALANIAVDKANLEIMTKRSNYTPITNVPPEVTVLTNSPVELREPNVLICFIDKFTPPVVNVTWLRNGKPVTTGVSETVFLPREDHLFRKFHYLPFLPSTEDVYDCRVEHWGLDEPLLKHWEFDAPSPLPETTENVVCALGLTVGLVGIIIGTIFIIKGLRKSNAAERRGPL
- Assay explanation: biochemical
- Assay type: binding
- Test context: DRB1 *1101
pIC50: −log10 of the molar value.
Readout name: pIC50

// worked examples, pIC50 included
{"Smiles notation": "CSCC[C@H](NC(=O)[C@@H](NC(=O)[C@H](CCCCN)NC(=O)[C@@H](NC(=O)[C@H](C)NC(=O)[C@H](CC(=O)O)NC(=O)[C@@H](N)[C@@H](C)O)C(C)C)C(C)C)C(=O)N[C@@H](CC(=O)O)C(=O)N[C@@H](CC(C)C)C(=O)N1CCC[C@H]1C(=O)N[C@H](C(=O)N[C@@H](CCC(N)=O)C(=O)N[C@@H](CCC(=O)O)C(=O)N1CCC[C@H]1C(=O)N[C@@H](C)C(=O)O)[C@@H](C)O", "Endpoint result": "< 4.30"}
{"Smiles notation": "CSCC[C@H](NC(=O)[C@H](CCC(=O)O)NC(=O)[C@H](CCC(N)=O)NC(=O)[C@@H]1CCCN1)C(=O)N[C@@H](CCCCN)C(=O)N[C@H](C(=O)N[C@@H](Cc1ccc(O)cc1)C(=O)N[C@@H](CO)C(=O)N[C@H](C(=O)N[C@@H](CO)C(=O)N[C@@H](Cc1ccccc1)C(=O)N[C@@H](CC(=O)O)C(=O)N[C@@H](CO)C(=O)N[C@@H](CC(C)C)C(=O)N[C@@H](Cc1ccccc1)C(=O)O)C(C)C)[C@@H](C)O", "Endpoint result": "< 4.30"}
{"Smiles notation": "CC[C@H](C)[C@H](NC(=O)[C@@H]1CCCN1C(=O)[C@H](CCC(N)=O)NC(=O)[C@@H](N)Cc1c[nH]c2ccccc12)C(=O)N1CCC[C@H]1C(=O)N[C@H](C(=O)N[C@@H](Cc1c[nH]cn1)C(=O)N[C@H](C(=O)N[C@H](C(=O)N1CCC[C@H]1C(=O)N[C@@H](CC(C)C)C(=O)N[C@@H](CO)C(=O)N[C@@H](CCC(=O)O)C(=O)N[C@@H](CC(=O)O)C(=O)N[C@@H](CCC(N)=O)C(=O)O)C(C)C)[C@@H](C)O)C(C)C", "Endpoint result": "< 4.18"}

Field: next compound
### Prompt Need pIC50 of CC[C@H](C)[C@H](NC(=O)[C@H](CO)NC(=O)[C@H](CO)NC(=O)[C@H](CC(=O)O)NC(=O)[C@H](C)NC(=O)[C@H](CC(N)=O)NC(=O)[C@@H](NC(=O)[C@H](Cc1ccc(O)cc1)NC(=O)[C@H](C)NC(=O)[C@@H](N)C(C)C)[C@@H](C)CC)C(=O)N[C@@H](CCC(=O)O)C(=O)NCC(=O)N[C@@H](CC(N)=O)C(=O)N[C@@H](Cc1ccc(O)cc1)C(=O)N[C@H](C(=O)O)[C@@H](C)O , thanks.
### Response < 4.72

====

- Tested system: HLA-DR DRB1*0401 (DR4) (Homo sapiens, UniProt P01903+P01911, A100K/A169T/F76Y/I96L/K127E/L162R/M171V/N62H/P40V/Q125Y/R42H/S133A/S149N/S66Y/V115G/V209L/W38E)
- Assay explanation: biochemical
- Format: binding
- Test context: DRB1 *0401
pIC50: −log10 of the molar value. No end group written: not given here.
Assign Criterion met whenever pIC50 does not fall below 6; assign Criterion not met whenever it does.

Previously resolved entries follow.
{"Ordered residues": "WKRMEVGQQAVEVWQ", "Category label": "Criterion met"}
{"Ordered residues": "QTQKLLWQLNGRLEY", "Category label": "Criterion met"}
{"Ordered residues": "SFLQNPQTSLTFSES", "Category label": "Criterion not met"}
{"Ordered residues": "KCEFQDAYVILLSEKK", "Category label": "Criterion met"}
{"Ordered residues": "FVNQHLCGSDLVEAL [FVNQHLCGSDLVEAL]", "Category label": "Criterion not met"}

Please find the next sequence below.
### Prompt Reported pIC50 reaches at least 6 for RNFYVINRLTGYLRN ?
### Response Criterion met

// data source = patent US20060079453A1
